SUBJECT_OF_TEST: human DGKζ (Homo sapiens)
Construct: TVMV protease cleavage site (C); Hexa-His (C); made in house; host or cells: Sf9 insect cells (baculovirus, Bac-to-Bac)
Sequence (Q13574 with tags, fused parts or gaps isoform Q13574-4): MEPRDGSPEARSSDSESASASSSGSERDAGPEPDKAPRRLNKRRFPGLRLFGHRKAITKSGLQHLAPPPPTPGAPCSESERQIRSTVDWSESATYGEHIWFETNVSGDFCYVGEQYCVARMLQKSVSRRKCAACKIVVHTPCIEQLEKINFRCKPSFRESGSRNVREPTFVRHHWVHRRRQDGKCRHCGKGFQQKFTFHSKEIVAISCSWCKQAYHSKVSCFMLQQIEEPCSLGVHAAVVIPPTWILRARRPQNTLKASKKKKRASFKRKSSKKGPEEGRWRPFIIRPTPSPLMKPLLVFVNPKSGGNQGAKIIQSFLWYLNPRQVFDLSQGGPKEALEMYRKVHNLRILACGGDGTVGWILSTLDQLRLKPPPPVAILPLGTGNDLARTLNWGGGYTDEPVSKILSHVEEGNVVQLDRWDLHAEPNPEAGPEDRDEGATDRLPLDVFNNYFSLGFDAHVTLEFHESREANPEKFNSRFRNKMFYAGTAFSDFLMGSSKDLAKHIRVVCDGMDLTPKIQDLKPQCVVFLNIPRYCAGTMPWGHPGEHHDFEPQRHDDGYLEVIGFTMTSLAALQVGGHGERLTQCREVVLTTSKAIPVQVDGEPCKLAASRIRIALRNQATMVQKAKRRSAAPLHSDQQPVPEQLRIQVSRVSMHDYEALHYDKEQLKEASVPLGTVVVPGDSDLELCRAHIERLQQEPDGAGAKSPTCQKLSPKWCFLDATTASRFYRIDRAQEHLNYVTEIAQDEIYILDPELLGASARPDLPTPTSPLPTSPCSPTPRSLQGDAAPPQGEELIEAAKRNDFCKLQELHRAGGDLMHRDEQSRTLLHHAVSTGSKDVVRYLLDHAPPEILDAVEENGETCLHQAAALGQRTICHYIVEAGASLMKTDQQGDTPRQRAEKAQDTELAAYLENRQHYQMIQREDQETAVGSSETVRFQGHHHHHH
EXPERIMENTAL_PROTOCOL: DGKζ LIPGLO assay (extruded liposome substrate), in vitro DGK inhibition
Format: biochemical
CONDITION_DESCRIPTION: liposome (LIPGLO) assay; read-out: DGKz LIPGLO IC50
PROPERTY_MEASURED: log10(IC50) (log10 of the value in µM)

COMPOUND	log10(IC50)
C[C@@H]1CN(c2cc(=O)n(C)c3ccc(C#N)nc23)[C@@H](C)CN1Cc1ccc(OC(F)(F)F)c(Br)c1	1.26
COC(=O)C1CN(c2c(F)c(=O)n(C)c3ccc(C#N)nc23)CCN1C(c1ccc(F)cc1)c1ccc(F)cc1 (single isomer, unassigned) [Example 74]	0.93
COCCOc1cc(C(C)N2C[C@H](C)N(c3cc(=O)n(C)c4ccc(C#N)nc34)C[C@H]2C)ccc1C#N (single isomer, unassigned) [Example 1321]	-0.51
CC(C)[C@H]1CN(C(c2ccc(F)cc2)c2ccc(F)cc2)[C@@H](C)CN1c1cc(=O)n(C)c2ccc(C#N)nc12	2.38
C[C@@H]1CN(c2cc(=O)n(C)c3ccc(C#N)nc23)[C@@H](C)CN1C(c1ccc(F)cc1)c1cnccn1 (single isomer, unassigned) [Example 674]	0.63
CCC(c1cc(OC(F)(F)F)ccc1F)N1C[C@H](CC)N(c2cc(=O)n(C)c3ccc(C#N)nc23)C[C@H]1C (single isomer, unassigned) [Example 1380]	-0.74
